Reference source for all entries: patent US20160083466A1

Molecular target: T1, monkey IL-25 expressed with a C-terminal myc-myc-hexahistidine tag (M. fascicularis (cynomolgus monkey))
T1 construct: also called monkey IL-25-MMH; MfIL-25-MMH
T1 chain: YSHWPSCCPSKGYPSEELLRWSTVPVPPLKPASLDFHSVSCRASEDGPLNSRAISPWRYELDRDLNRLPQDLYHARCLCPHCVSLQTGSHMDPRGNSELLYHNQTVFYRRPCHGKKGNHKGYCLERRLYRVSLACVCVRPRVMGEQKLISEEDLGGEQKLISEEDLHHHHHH
Assay: SPR Biacore, captured mAb, 25°C;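 note: Real-time surface plasmon resonance on a Biacore 4000, with IL-25-MMH binding to purified anti-IL-25 antibodies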
Measurement Name: Kd (nM)
Lab book: enter the figure in nM, no units written.

>  <Binder>
H4H10907P (antibody, human IgG4, V domains shown) VH: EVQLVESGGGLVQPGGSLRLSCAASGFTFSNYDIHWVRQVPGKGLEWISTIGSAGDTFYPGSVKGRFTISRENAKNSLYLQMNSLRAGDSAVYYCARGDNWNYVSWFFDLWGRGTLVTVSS VL: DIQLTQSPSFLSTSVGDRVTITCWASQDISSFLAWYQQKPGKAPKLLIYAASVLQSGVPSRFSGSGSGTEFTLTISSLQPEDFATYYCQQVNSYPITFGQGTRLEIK

>  <Kd / nM>
0.0485

$$$$
>  <Binder>
H4H10905P (antibody, human IgG4, V domains shown) VH: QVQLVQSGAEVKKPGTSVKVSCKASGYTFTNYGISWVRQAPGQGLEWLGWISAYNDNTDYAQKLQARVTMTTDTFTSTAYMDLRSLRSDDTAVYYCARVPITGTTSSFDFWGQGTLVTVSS VL: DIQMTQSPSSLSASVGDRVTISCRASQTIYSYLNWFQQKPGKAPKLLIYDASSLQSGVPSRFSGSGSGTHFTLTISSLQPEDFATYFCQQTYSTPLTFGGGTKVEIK

>  <Kd / nM>
0.186

$$$$
>  <Binder>
H4H10876P (antibody, human IgG4, V domains shown) VH: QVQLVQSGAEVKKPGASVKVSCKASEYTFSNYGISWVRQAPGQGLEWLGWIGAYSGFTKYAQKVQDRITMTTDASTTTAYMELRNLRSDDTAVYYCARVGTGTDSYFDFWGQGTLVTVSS VL: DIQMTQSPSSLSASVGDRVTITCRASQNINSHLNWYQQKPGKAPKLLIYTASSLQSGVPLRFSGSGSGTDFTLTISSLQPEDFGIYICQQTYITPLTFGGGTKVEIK

>  <Kd / nM>
0.218

$$$$

Now for the binder whose Kd we want.
Tell me its Kd given H4H10861P (antibody, human IgG4, V domains shown) VH: QVQLQESGPGLVKPSETLSLTCTVSGASISNYYWSWIRQPPGKGLEWIGYIFYSGNTNYNPSLKSRVTISVDTSKNQFSLKLSSVTAADTAVYYCARVRFSDYELNWFDPWGQGTLVTVSS VL: DIVMTQSPDSLAVFLGERATINCRSSQSVFLGSNNKNYLAWYQQKPGQPPKLLIYWASSRESGVPDRFSGSGSGTDFTLTINSLQAEDVAVYYCQQYFITPLTFGGGTKVEIK as the entry.
0.00454
